Target: SpCas9 (Streptococcus pyogenes serotype M1, UniProt Q99ZW2)
Sequence (Q99ZW2 whole entry): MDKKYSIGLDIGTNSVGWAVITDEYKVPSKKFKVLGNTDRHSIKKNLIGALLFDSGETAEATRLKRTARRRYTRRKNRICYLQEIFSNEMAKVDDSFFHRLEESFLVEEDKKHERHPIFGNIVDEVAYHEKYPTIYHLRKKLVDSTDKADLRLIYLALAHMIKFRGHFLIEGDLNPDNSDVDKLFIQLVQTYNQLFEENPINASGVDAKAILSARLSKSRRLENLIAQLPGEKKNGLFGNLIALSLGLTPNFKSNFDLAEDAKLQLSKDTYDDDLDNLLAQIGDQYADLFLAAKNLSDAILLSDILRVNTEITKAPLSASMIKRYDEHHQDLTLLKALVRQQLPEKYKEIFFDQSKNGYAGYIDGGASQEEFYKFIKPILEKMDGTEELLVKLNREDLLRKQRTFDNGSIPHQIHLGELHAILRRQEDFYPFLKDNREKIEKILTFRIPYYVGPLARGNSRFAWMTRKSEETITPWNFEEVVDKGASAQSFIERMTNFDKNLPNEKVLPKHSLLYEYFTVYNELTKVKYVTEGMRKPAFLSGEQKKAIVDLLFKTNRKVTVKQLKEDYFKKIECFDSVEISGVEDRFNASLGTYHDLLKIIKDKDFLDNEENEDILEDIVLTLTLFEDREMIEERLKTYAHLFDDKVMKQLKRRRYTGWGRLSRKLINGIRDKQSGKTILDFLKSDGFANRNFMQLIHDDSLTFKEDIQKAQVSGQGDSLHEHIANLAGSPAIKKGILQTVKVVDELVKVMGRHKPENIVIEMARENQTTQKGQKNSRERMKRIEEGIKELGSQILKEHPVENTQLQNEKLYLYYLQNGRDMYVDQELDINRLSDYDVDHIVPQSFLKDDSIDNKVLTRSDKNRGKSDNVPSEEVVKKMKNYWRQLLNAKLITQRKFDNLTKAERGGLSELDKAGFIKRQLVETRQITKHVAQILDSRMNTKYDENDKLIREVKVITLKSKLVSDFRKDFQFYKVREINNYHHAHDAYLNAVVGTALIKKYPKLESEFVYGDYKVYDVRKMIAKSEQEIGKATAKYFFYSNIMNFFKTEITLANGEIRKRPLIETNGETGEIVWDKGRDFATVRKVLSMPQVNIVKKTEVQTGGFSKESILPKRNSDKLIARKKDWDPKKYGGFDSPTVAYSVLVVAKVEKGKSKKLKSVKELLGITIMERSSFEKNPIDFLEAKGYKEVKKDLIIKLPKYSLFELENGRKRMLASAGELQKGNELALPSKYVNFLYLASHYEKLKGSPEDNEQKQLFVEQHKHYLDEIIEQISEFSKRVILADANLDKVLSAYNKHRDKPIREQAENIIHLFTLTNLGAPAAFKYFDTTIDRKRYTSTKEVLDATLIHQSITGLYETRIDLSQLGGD
Assay: eGFP disruption assay, SpCas9, U2OS.eGFP.PEST cells
Assay type: cell-based
Conditions: eGFP assay, replicate 1
Excerpt: In some embodiments, the secondary assay may be an EGFP disruption assay. In such assay, a quantitative human cell-based reporter assay that enables rapid quantitation of targeted nuclease activities is used to characterize off-target cleavage of Cas9-based RNA guided endonucleases. […] Primary and secondary screening. […] In this assay, any compound that inhibited SpCas9 would rescue the loss of eGFP fluorescence. […]
measured-endpoint: % GFP+, Rep 1 (%)
One number for each entry, in %.

Solved entries:
>>> df
                                   molecule  numeric_readout
0  CCN1C(=O)c2cccc3cccc1c23 [Compound T0503-6911]            67.52
1  O=C(CCS(=O)(=O)c1ccc(Cl)cc1)Nc1nc(-c2ccncc2)cs1 [Compound G786-1325]            86.01
2  Cc1nc2ccccc2c(C)c1CC(=O)N1CCN(c2ccc(O)cc2)CC1 [Compound T5461482]            66.84
3  O=C(CSc1nccn1-c1cccc(F)c1)N1CCN(c2ccc(O)cc2)CC1 [Compound T5535170]            67.96
4  O=C(CCS(=O)(=O)c1ccc(Cl)cc1)Nc1nc(-c2ccccn2)cs1 [Compound G786-1324]            81.43
5  NC1=C(c2nc3ccccc3s2)C(=O)CN1N=Cc1ccc(-c2ccc(S(=O)(=O)Nc3ncccn3)cc2)o1 [Compound T5371551]            64.28
6  O=C(CCS(=O)(=O)c1ccccc1)Nc1nc(-c2ccncc2)cs1 [Compound G786-1264]            82.72

-- ask What % GFP+, Rep 1 value was documented for this molecule, Cc1ccccc1C(=O)Nc1nc2ccc(S(N)(=O)=O)cc2s1 [Compound G786-1547] ?
-- reply 82.8

* * *

Target: SaCas9 (Staphylococcus aureus, UniProt J7RUA5)
Sequence (J7RUA5 whole entry): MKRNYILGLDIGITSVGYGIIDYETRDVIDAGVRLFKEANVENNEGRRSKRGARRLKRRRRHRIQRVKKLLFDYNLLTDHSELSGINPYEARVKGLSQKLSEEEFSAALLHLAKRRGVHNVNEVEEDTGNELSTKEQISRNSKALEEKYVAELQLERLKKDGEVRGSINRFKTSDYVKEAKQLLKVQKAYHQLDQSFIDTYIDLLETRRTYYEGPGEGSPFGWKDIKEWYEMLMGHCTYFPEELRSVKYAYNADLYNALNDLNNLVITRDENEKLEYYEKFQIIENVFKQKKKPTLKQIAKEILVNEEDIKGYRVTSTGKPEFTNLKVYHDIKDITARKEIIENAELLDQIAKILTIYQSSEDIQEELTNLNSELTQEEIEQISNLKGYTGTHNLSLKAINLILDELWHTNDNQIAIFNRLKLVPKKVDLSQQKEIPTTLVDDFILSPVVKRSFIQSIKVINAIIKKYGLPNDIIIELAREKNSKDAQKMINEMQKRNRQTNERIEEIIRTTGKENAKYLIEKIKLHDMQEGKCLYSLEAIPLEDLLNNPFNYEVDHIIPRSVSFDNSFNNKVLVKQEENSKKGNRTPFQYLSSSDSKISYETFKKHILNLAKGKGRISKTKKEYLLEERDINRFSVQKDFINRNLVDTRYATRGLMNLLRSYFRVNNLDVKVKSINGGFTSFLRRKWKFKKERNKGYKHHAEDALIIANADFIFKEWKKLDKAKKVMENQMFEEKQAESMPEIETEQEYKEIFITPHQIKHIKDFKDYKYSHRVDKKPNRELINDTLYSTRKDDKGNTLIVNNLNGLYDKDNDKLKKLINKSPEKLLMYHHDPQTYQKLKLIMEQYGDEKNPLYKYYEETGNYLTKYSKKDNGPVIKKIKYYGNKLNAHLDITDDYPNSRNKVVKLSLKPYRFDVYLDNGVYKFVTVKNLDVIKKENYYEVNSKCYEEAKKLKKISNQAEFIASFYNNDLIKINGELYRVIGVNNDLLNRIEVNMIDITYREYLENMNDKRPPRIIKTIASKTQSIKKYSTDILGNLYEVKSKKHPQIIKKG
Test: Strand displacement assay, SaCas9 primary screen
Type: biochemical
Conditions: SaCas9 primary screen, Auto Zscore, replicate 1
measured-endpoint: Auto Zscore Rep 1

# count of solved cases: 6
>>> df
                                   compound    result
0  CCN(Cc1ccccc1)c1ccc(NS(=O)(=O)c2ccc(OC)cc2)cc1C(=O)O [Compound F294-0003]    0.9297
1  Cc1ccc(OCc2nn3c(-c4ccoc4C)nnc3s2)cc1C [Cpd D727-0113]     1.744
2  O=c1oc2cc(OCc3nnn[nH]3)c(Cl)cc2c2c1CCC2 [Cpd D715-1040]   0.03234
3  Cc1cc(-c2nn3c(COc4ccccc4)nnc3s2)no1 [Cpd D727-0624]      1.24
4  CC(C)NC(=O)CN1CCN(c2ccc(C(=O)O)cc2NC(=O)c2ccccc2Cl)CC1 [Compound F086-0028]  −0.07719
5  O=C(O)c1cc(NS(=O)(=O)N2CCOCC2)ccc1N1CCCC(CN2CCCC2)C1 (centres unmarked) [Cpd F294-1002]   −0.7997

List the reported Auto Zscore Rep 1 of each compound below.
1. CC1CCC(NC(=O)C2(C)Cn3c(cc4occc43)C(=O)N2CCN(C)C2CCCCC2)CC1 (centres unmarked) [Cpd E218-0425]
2. CCN(Cc1ccccc1)c1ccc(NS(=O)(=O)c2ccccc2)cc1C(=O)O [Cpd F294-0004]

-- reply
1. −0.4666
2. −1.138

src = patent US20240115557A1
